test system: field bindweed; assay: Test E pre-/postemergence herbicide test; format: in vivo, Convolvulus arvensis; details: Preemergence, 62 g ai/ha; scale 0 to 100
Listed compounds paired with reported Plant response rating, Bindweed, Field
Note: the reply should be a number with no unit written.

CCNC(=O)c1ccc(F)c(NC(=O)c2cc(C(C)(C)C)nn2CC)c1
10

Lab request: please report Plant response rating, Bindweed, Field under test system field bindweed for CCn1nc(C(C)(C)C)cc1C(=O)Nc1cccc(C(N)=O)n1
30

Missing value: Plant response rating, Bindweed, Field, field bindweed, entry CCNC(=O)c1cccc(NC(=O)c2nn(C(C)(C)C)nc2C)c1 . Fill in?
30

Notebook: pull reported Plant response rating, Bindweed, Field for field bindweed, entry CCc1nn(C(C)(C)C)nc1C(=O)Nc1cccc(C(=O)N(C)CC)c1
80

Taken from patent US20060069132A1.
